Some molecules, each annotated with its measured Zone of Inhibition (mm).
test system: Staphylococcus aureus (ATCC strain #6538); assay: modified Kirby Bauer susceptibility model, zone of inhibition around antibiotic containing HA disk; format: cell-based; conditions: antibiotic absorbed into precipitated crystalline HA coating; Mueller-Hinton agar, 24 hr at 37° C.
Return type: number; implicit unit mm.

Specify Zone of Inhibition (mm) for CC1=C(C(=O)O)N2C(=O)[C@@H](NC(=O)[C@H](N)c3ccccc3)[C@H]2SC1 and stop. 19

Supply reported Zone of Inhibition (mm) belonging to this molecule: N[C@@H](C(=O)N[C@@H]1C(=O)N2C(C(=O)O)=C(Cl)CS[C@H]12)c1ccccc1 20.5

State, in one line, measured Zone of Inhibition (mm) of O=C(O)c1cn(C2CC2)c2cc(N3CCNCC3)c(F)cc2c1=O 15.5

Give the measured Zone of Inhibition (mm) for CC(=O)OCC1=C(C(=O)O)N2C(=O)[C@@H](NC(=O)CCC[C@@H](N)C(=O)O)[C@H]2SC1 11.5

Using the record for Cn1nnnc1SCC1=C(C(=O)O)N2C(=O)[C@@H](NC(=O)[C@H](O)c3ccccc3)[C@H]2SC1 , state its measured Zone of Inhibition (mm). 25
